Some molecules, each annotated with its measured Anti-hypertensive activity.
# Test system: spontaneously hypertensive rat
# method.description: Antihypertensive activity (spontaneously hypertensive rat)
# Format: in vivo
# condition: 15 mg/kg per os
Keep the answer to the number alone.

Please review the following examples before continuing.
                                   molecule       experimental_endpoint  endpoint_value
0  CCCCCCCCNC(CC)C(O)c1ccc(SC)cc1 (stereo not drawn) [No 18]  Anti-hypertensive activity               0
1  CC(NC(C)(C)C)C(O)c1ccc(SC2CCCCC2)cc1 (stereo not drawn) [No 21]  Anti-hypertensive activity               0
2  CCCCCCCCNC(CC)C(O)c1ccc(SCC)cc1 (stereo not drawn) [No 20]  Anti-hypertensive activity               0
3  CCCCNC(C)C(O)c1ccc(SC)cc1 (stereo not drawn) [No 10]  Anti-hypertensive activity               0
4  CCCCCCCCNC(C)C(O)c1ccc(SC(C)C)cc1 (stereo not drawn) [No 2]  Anti-hypertensive activity               0

Under spontaneously hypertensive rat: Anti-hypertensive activity value of CCCCCCCCNC(CC)C(O)c1ccc(SC(C)C)cc1 (stereo not drawn) [No 8] ?
0

====

# Test system: Hist.
# method.description: Antispasmodic activity, Hist.
Some compounds, each annotated with its measured Antispasmodic activity CE 100, Hist..
Please respond with the number in μ g γ 60 ml and leave the unit unwritten.

Please review the following examples before continuing.
>>> print(df.to_string())
                                   compound  endpoint_value
0  CCC(C)NC(C)C(O)c1ccc(SC(C)C)cc1 (stereo not drawn)            1000
1  CCCCNC(C)C(O)c1ccc(SC)cc1 (stereo not drawn)            1000
2  CCCCCCCCNC(C)C(O)c1ccc(SC2CCCCC2)cc1 (stereo not drawn)            1000

Entry CCC(C)NC(CC)C(O)c1ccc(SC(C)C)cc1 (stereo not drawn) has what Antispasmodic activity CE 100, Hist.?
1000

Entry CC(C)CSc1ccc(C(O)C(C)NC(C)C)cc1 (stereo not drawn) has what Antispasmodic activity CE 100, Hist.?
500

Entry CCCCCCCCNC(CC)C(O)c1ccc(SC)cc1 (stereo not drawn) has what Antispasmodic activity CE 100, Hist.?
200

Entry CC(NC(C)(C)C)C(O)c1ccc(SC2CCCCC2)cc1 (stereo not drawn) has what Antispasmodic activity CE 100, Hist.?
500

Entry CCCCCCCCNC(C)C(O)c1ccc(SCC)cc1 (stereo not drawn) has what Antispasmodic activity CE 100, Hist.?
100

Entry CCC(NC(C)C)C(O)c1ccc(SC2CCCCC2)cc1 (stereo not drawn) has what Antispasmodic activity CE 100, Hist.?
500

Entry CCCCNC(C)C(O)c1ccc(SCC)cc1 (stereo not drawn) has what Antispasmodic activity CE 100, Hist.?
1000

Entry CCCCNC(CC)C(O)c1ccc(SCC)cc1 (stereo not drawn) has what Antispasmodic activity CE 100, Hist.?
1000

====

# Tested on: Hist.
# method.description: Antispasmodic activity, Hist.
experimental.endpoint: Antispasmodic activity CE 100, Hist. (μ g γ 60 ml)
Please respond with the number in μ g γ 60 ml and leave the unit unwritten.

Please review the following examples before continuing.
>>> print(df.to_string())
                                   molecule  endpoint_value
0  CCCCNC(C)C(O)c1ccc(SCC(C)C)cc1 (centres unmarked)             200
1  CCCCCCCCNC(C)C(O)c1ccc(SC)cc1 (centres unmarked)             200

Entry CCC(C(O)c1ccc(SC2CCCCC2)cc1)N1CCCCC1 (centres unmarked) has what Antispasmodic activity CE 100, Hist.?
1000

Entry CCC(NC(C)C)C(O)c1ccc(SC(C)C)cc1 (centres unmarked) has what Antispasmodic activity CE 100, Hist.?
1000

Entry CCCCNC(CC)C(O)c1ccc(SC)cc1 (centres unmarked) has what Antispasmodic activity CE 100, Hist.?
1000

====

Some compounds, each annotated with its measured Antispasmodic activity CE 100, BaCl2.
# Tested on: BaCl2
# method.description: Antispasmodic activity, BaCl2
Please respond with the number in μ g γ 60 ml and leave the unit unwritten.

Please review the following examples before continuing.
>>> df
                                   compound                 experimental_endpoint  unit_abbrev  endpoint_value
0  CCC(C)NC(CC)C(O)c1ccc(SC(C)C)cc1 (stereo not drawn)  Antispasmodic activity CE 100, BaCl2  μ g γ 60 ml             500
1  CCC(NC(C)C)C(O)c1ccc(SC(C)C)cc1 (stereo not drawn)  Antispasmodic activity CE 100, BaCl2  μ g γ 60 ml            1000

Under BaCl2: Antispasmodic activity CE 100, BaCl2 value of CC(C)Sc1ccc(C(O)C(C)NC(C)(C)C)cc1 (stereo not drawn) ?
1000

Under BaCl2: Antispasmodic activity CE 100, BaCl2 value of CC(NC(C)(C)C)C(O)c1ccc(SC2CCCCC2)cc1 (stereo not drawn) ?
500

Under BaCl2: Antispasmodic activity CE 100, BaCl2 value of CCCCNC(C)C(O)c1ccc(SC2CCCCC2)cc1 (stereo not drawn) ?
200

====

# Test system: BaCl2
# method.description: Antispasmodic activity, BaCl2
Some compounds, each annotated with its measured Antispasmodic activity CE 100, BaCl2.
Please respond with the number in μ g γ 60 ml and leave the unit unwritten.

Please review the following examples before continuing.
>>> df
                                   compound                 experimental_endpoint  endpoint_value
0  CC(Cc1ccccc1)NC(C)C(O)c1ccc(SC(C)C)cc1 (centres unmarked)  Antispasmodic activity CE 100, BaCl2             500
1  CCCCNC(C)C(O)c1ccc(SCC(C)C)cc1 (centres unmarked)  Antispasmodic activity CE 100, BaCl2             200
2  CCCCNC(C)C(O)c1ccc(SC(C)C)cc1 (centres unmarked)  Antispasmodic activity CE 100, BaCl2             500

Entry CCCCNC(C)C(O)c1ccc(SC)cc1 (centres unmarked) has what Antispasmodic activity CE 100, BaCl2?
1000

Entry CCCCNC(CC)C(O)c1ccc(SCC)cc1 (centres unmarked) has what Antispasmodic activity CE 100, BaCl2?
500

====

# method.description: DL50 mouse p.o.
# condition: in vivo, po, limits of reliability (p : 0.95) in brackets
Please respond with 1 (yes) when measured LD50 is strictly beneath 1000 mg/kg, and with 0 (no) in all other cases.

Consider the following illustrative entries.
>>> print(df.to_string())
                                   compound    label
0  CCCCCCCCNC(C)C(O)c1ccc(SCC(C)C)cc1 (stereo not shown)   0 (no)
1  CC(Cc1ccccc1)NC(C)C(O)c1ccc(SC(C)C)cc1 (stereo not shown)   0 (no)
2  CCCCNC(CC)C(O)c1ccc(SCC)cc1 (stereo not shown)  1 (yes)
3  CC(C)NC(C)C(O)c1ccc(SC(C)C)cc1 (stereo not shown)  1 (yes)
4  CC(C)CSc1ccc(C(O)C(C)NC(C)C)cc1 (stereo not shown)   0 (no)

Record CCCCNC(C)C(O)c1ccc(SCC(C)C)cc1 (stereo not shown) : is its LD50 strictly below 1000 mg/kg?
0 (no)

Record CCCCCCCCNC(C)C(O)c1ccc(SC(C)C)cc1 (stereo not shown) : is its LD50 strictly below 1000 mg/kg?
0 (no)

Record CCCCCCCCNC(CC)C(O)c1ccc(SC(C)C)cc1 (stereo not shown) : is its LD50 strictly below 1000 mg/kg?
0 (no)

Record CCCCNC(CC)C(O)c1ccc(SC)cc1 (stereo not shown) : is its LD50 strictly below 1000 mg/kg?
1 (yes)

Record CCCCCCCCNC(C)C(O)c1ccc(SC2CCCC2)cc1 (stereo not shown) : is its LD50 strictly below 1000 mg/kg?
0 (no)

Record CCCCNC(CC)C(O)c1ccc(SC(C)C)cc1 (stereo not shown) : is its LD50 strictly below 1000 mg/kg?
0 (no)

Record CCCCNC(C)C(O)c1ccc(SCC)cc1 (stereo not shown) : is its LD50 strictly below 1000 mg/kg?
1 (yes)

Record CCC(C)NC(C)C(O)c1ccc(SC(C)C)cc1 (stereo not shown) : is its LD50 strictly below 1000 mg/kg?
1 (yes)

====

# Tested on: Hist.
# method.description: Antispasmodic activity, Hist.
Some compounds, each annotated with its measured Antispasmodic activity CE 100, Hist..
Please respond with the number in μ g γ 60 ml and leave the unit unwritten.

>>> df
                                   compound                 experimental_endpoint  endpoint_value
0  CCCCCCCCNC(C)C(O)c1ccc(SCC(C)C)cc1 (stereo not shown) [No 26]  Antispasmodic activity CE 100, Hist.             200

Entry CCCCNC(CC)C(O)c1ccc(SC(C)C)cc1 (stereo not shown) [No 6] has what Antispasmodic activity CE 100, Hist.?
500

Entry CCCCCCCCNC(CC)C(O)c1ccc(SC(C)C)cc1 (stereo not shown) [No 8] has what Antispasmodic activity CE 100, Hist.?
500

Entry CC(Cc1ccccc1)NC(C)C(O)c1ccc(SC(C)C)cc1 (stereo not shown) [No 35] has what Antispasmodic activity CE 100, Hist.?
200

Entry CCCCNC(C)C(O)c1ccc(SC(C)C)cc1 (stereo not shown) [No 1] has what Antispasmodic activity CE 100, Hist.?
500

Entry CCCCNC(C)C(O)c1ccc(SC2CCCCC2)cc1 (stereo not shown) [No 14] has what Antispasmodic activity CE 100, Hist.?
500

Entry CCCCCCCCNC(C)C(O)c1ccc(SC(C)C)cc1 (stereo not shown) [No 2] has what Antispasmodic activity CE 100, Hist.?
100

Entry CCCCCCCCNC(CC)C(O)c1ccc(SCC)cc1 (stereo not shown) [No 20] has what Antispasmodic activity CE 100, Hist.?
200

Entry CCC(C)NC(C)C(O)c1ccc(SCC(C)C)cc1 (stereo not shown) [No 23] has what Antispasmodic activity CE 100, Hist.?
200

Entry CC(C)CSc1ccc(C(O)C(C)NC(C)(C)C)cc1 (stereo not shown) [No 24] has what Antispasmodic activity CE 100, Hist.?
200

Entry CCC(C)NC(C)C(O)c1ccc(SC2CCCCC2)cc1 (stereo not shown) [No 16] has what Antispasmodic activity CE 100, Hist.?
500
